- Target system: Cytochrome P450 1A2 (Homo sapiens) (UniProt P05177)
- Sequence (P05177 whole entry, looked up): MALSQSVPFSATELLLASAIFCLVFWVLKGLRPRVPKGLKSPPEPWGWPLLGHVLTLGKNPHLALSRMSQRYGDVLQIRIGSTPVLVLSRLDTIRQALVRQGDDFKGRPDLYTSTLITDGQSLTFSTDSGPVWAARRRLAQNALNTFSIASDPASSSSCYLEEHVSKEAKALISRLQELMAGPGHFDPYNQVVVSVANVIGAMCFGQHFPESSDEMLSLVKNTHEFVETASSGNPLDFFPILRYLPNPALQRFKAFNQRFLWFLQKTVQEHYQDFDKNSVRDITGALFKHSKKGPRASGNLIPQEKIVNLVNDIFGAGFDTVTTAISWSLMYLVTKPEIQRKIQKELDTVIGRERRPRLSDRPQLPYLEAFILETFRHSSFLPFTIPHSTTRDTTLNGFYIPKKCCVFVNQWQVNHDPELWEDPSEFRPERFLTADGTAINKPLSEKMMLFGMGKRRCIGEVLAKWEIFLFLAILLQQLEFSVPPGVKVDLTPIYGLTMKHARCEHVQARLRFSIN
- Assay procedure: Cytochrome panel assay with activity outcomes
- Protocol conditions: recombinant CYP, pro-luciferin dealkylation, luminescence, p450-cyp1a2; series mostly up to 57.1 µM
Screen size: about 16,000 compounds; about 5,700 (36%) were called active. Roughly 24% stayed inconclusive and do not appear here. The call rests on the fitted dose curve; in most records, active means well fitted curve in the direction sought with a large enough effect; inconclusive means small, poorly fitted or top-dose-only effect, or effect the other way; inactive means no such curve, though single readings can be large or run the other way. Some of the results follow.
Labels: active, inactive

Chemical string: Cc1ccccc1-c1cncnc1N(C)Cc1ccco1
Classification: active
//
Chemical string: O=C(Cc1ccccc1)N/N=C/c1cc(Br)c(Br)o1
Classification: active
//
Chemical string: Cc1ccc(CS(=O)(=O)CCC(=O)NCCCOC(C)C)cc1
Classification: inactive
//
Chemical string: O=C(O)/C=C/C(=O)Nc1ccccc1-c1ccccc1
Classification: inactive
//
Chemical string: CCOC(=O)c1sc(=N)n(-c2ccc(OC)cc2)c1C
Classification: active
//
Chemical string: COc1ccc(-n2c(C)nn(C)c2=O)cc1
Classification: inactive
//
Chemical string: Clc1cnccn1
Classification: inactive
//
Chemical string: CCCCCc1nc2c(C#N)c(-c3ccc(Cl)cc3)ccn2n1
Classification: active
//
Chemical string: COC(=O)c1ccc(C(=O)OC)c(NC(=S)N2CCN(c3ccccc3)CC2)c1
Classification: active
//
Chemical string: COc1ccc(CCN(C)CCC(=O)Nc2c(C)cc(C)cc2C)cc1OC
Classification: inactive
//
Chemical string: N=C(N)c1ccc(N)cc1
Classification: inactive
//
Chemical string: CS(=O)(=O)N1CCC[C@@]2(CCN(Cc3nccs3)C2)C1
Classification: inactive
//
Chemical string: CN(Cc1ccco1)c1ncncc1-c1ccccc1Cl
Classification: active

FYI, the data here is from PubChem BioAssay AID1851.
